I'd appreciate it if you could supply Ki values for the items below.
# target_of_assay: human α1a-adrenoceptor (Homo sapiens, UniProt P35348)
# Construct: expressed in transfected cells
# Sequence (P35348 whole entry): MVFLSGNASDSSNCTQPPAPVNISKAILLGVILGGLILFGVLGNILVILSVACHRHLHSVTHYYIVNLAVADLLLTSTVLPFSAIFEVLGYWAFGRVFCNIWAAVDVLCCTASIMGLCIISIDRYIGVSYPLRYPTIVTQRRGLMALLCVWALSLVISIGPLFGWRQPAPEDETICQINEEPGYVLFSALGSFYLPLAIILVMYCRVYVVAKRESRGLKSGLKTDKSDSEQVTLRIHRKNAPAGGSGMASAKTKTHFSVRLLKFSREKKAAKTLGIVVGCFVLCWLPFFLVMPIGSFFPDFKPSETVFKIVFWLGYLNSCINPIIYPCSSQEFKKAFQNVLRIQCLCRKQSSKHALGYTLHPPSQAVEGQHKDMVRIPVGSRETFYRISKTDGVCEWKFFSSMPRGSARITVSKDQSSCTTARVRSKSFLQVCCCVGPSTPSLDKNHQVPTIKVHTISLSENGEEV
# method_summary: [3H]prazosin binding to cloned human α1-adrenoceptor subtypes (α1a)
# measurement_conditions: [3H]prazosin, CHO cell membranes; read-out: Binding affinity (Ki, nM) α1a
Answers are plain numbers, in nM.

Examples with their reported Ki follow.
COc1ccccc1N1CCN(CC[C@H](c2ccccc2)[C@@H](O)C2CCCCC2)CC1 (racemic) [Ex. 5, reference compound]: 51
COc1ccccc1N1CCN(CC[C@@H](c2ccccc2F)[C@H](O)C2CCCCC2)CC1 (racemic): 18
COc1ccccc1N1CCN(CC[C@H](c2ccccc2F)[C@@H](O)C2CCCCC2)CC1: 24

Q) Returns the measured Ki for the input molecule. Input: `COc1ccccc1N1CCN(CC[C@H](c2ccccc2F)[C@H](O)C2CCCCC2)CC1`
A) 44
